Test: Case study Patient: blood testosterone levels during topical testosterone gel to forehead
Assay type: in vivo, human
Conditions: human, blood, topical, 0.14 mg, Total testosterone, 0.2% w/w gel once daily to forehead, 10 months
measurement name: concentration at 10 months (ng/mL)
Give the value, in units of ng/mL, as a plain number.

Lookup: Endpoint output: concentration at 10 months of C[C@]12CC[C@H]3[C@@H](CCC4=CC(=O)CC[C@@]43C)[C@@H]1CC[C@@H]2O [testosterone, 17β-hydroxyandrost-4-en-3-one] . Value?
Found: 0.21

###

Test: Case study Patient: blood testosterone levels during topical testosterone gel to forehead
Assay type: in vivo, human
Details: human, blood, topical, 0.14 mg, Free testosterone, 0.2% w/w gel once daily to forehead, 10 months
measurement name: concentration at 10 months (pg/mL)
Note: unit pg/mL is implicit; provide only the numeric part.

Lookup: I am curious: what concentration at 10 months value has been reported for C[C@]12CC[C@H]3[C@@H](CCC4=CC(=O)CC[C@@]43C)[C@@H]1CC[C@@H]2O [testosterone, 17β-hydroxyandrost-4-en-3-one] ?
Found: 1

###

Assay: Case study Patient: blood testosterone levels during topical testosterone gel to forehead
Format: in vivo, human
Conditions: human, blood, topical, 0.14 mg, Total testosterone, 0.14 mg in 0.07 g gel (0.2% w/w) once daily to forehead, 2 months
measurement name: concentration at 2 months (ng/mL)
Write the number in ng/mL without appending the unit.

Lookup: Which concentration at 2 months value is on record for C[C@]12CC[C@H]3[C@@H](CCC4=CC(=O)CC[C@@]43C)[C@@H]1CC[C@@H]2O [testosterone, 17β-hydroxyandrost-4-en-3-one] ?
Found: 0.14

###

Experiment: Case study Patient: blood testosterone levels during topical testosterone gel to forehead
Format: in vivo, human
Details: human, blood, topical, 0.14 mg, Free testosterone, 0.2% w/w gel once daily to forehead, 2 months
measurement name: concentration at 2 months (pg/mL)
Return type: number; implicit unit pg/mL.

Lookup: Any idea what its concentration at 2 months is? The molecule is C[C@]12CC[C@H]3[C@@H](CCC4=CC(=O)CC[C@@]43C)[C@@H]1CC[C@@H]2O [testosterone, 17β-hydroxyandrost-4-en-3-one]
Found: 0.08
